# assayed target: T1, TDP-218 peptide (human)
# T1 construct: 8-mer of human TDP-43; same ELISA method as for the biotinylated 15-mers
# T1 peptide: MDVFIPKP
# test summary: indirect ELISA, 8-mer peptide library
measurement type: binding result

| binder | measurement type | result |
| --- | --- | --- |
| ACI-7062-415C4-Ab1 (antibody, IgG1, V domains shown, also called 415C4C6; clone 14) VH: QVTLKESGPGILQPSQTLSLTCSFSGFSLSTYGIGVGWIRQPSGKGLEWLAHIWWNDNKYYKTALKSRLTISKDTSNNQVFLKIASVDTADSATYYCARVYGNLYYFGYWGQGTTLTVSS VL: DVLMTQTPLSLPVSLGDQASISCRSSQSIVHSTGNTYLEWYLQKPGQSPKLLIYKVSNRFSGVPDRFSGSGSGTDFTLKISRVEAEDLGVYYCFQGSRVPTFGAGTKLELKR | binding result | no binding |
| ACI-7062-406E3-Ab1 (antibody, IgG2a, V domains shown, also called 406E3D5; clone 5) VH: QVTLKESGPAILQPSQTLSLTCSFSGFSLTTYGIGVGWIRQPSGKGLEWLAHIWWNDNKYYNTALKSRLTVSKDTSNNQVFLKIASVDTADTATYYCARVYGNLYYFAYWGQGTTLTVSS VL: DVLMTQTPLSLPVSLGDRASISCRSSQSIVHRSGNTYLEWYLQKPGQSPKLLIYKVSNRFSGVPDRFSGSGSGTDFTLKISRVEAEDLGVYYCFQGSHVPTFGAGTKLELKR | binding result | no binding |
| ACI-7062-416A11-Ab1 (antibody, IgG2a, V domains shown, also called 416A11B3; clone 18) VH: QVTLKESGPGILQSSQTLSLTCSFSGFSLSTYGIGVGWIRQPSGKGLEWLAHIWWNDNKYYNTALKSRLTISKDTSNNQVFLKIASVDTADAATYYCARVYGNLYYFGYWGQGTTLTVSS VL: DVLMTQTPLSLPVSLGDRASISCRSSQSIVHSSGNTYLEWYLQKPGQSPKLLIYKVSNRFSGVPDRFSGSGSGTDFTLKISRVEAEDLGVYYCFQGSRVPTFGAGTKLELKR | binding result | no binding |
